Please provide measured IC50 for the entries that follow.
Target or test system: full-length human PIKFYVE (N-terminal GST-fusion) (Homo sapiens (Human), UniProt Q9Y2I7, L932S/Q1183K/Q995L/S1033A/S696N/T998S)
Sequence (Q9Y2I7 whole entry S696N/L932S/Q995L/T998S/S1033A/Q1183K, the tested form may be a part): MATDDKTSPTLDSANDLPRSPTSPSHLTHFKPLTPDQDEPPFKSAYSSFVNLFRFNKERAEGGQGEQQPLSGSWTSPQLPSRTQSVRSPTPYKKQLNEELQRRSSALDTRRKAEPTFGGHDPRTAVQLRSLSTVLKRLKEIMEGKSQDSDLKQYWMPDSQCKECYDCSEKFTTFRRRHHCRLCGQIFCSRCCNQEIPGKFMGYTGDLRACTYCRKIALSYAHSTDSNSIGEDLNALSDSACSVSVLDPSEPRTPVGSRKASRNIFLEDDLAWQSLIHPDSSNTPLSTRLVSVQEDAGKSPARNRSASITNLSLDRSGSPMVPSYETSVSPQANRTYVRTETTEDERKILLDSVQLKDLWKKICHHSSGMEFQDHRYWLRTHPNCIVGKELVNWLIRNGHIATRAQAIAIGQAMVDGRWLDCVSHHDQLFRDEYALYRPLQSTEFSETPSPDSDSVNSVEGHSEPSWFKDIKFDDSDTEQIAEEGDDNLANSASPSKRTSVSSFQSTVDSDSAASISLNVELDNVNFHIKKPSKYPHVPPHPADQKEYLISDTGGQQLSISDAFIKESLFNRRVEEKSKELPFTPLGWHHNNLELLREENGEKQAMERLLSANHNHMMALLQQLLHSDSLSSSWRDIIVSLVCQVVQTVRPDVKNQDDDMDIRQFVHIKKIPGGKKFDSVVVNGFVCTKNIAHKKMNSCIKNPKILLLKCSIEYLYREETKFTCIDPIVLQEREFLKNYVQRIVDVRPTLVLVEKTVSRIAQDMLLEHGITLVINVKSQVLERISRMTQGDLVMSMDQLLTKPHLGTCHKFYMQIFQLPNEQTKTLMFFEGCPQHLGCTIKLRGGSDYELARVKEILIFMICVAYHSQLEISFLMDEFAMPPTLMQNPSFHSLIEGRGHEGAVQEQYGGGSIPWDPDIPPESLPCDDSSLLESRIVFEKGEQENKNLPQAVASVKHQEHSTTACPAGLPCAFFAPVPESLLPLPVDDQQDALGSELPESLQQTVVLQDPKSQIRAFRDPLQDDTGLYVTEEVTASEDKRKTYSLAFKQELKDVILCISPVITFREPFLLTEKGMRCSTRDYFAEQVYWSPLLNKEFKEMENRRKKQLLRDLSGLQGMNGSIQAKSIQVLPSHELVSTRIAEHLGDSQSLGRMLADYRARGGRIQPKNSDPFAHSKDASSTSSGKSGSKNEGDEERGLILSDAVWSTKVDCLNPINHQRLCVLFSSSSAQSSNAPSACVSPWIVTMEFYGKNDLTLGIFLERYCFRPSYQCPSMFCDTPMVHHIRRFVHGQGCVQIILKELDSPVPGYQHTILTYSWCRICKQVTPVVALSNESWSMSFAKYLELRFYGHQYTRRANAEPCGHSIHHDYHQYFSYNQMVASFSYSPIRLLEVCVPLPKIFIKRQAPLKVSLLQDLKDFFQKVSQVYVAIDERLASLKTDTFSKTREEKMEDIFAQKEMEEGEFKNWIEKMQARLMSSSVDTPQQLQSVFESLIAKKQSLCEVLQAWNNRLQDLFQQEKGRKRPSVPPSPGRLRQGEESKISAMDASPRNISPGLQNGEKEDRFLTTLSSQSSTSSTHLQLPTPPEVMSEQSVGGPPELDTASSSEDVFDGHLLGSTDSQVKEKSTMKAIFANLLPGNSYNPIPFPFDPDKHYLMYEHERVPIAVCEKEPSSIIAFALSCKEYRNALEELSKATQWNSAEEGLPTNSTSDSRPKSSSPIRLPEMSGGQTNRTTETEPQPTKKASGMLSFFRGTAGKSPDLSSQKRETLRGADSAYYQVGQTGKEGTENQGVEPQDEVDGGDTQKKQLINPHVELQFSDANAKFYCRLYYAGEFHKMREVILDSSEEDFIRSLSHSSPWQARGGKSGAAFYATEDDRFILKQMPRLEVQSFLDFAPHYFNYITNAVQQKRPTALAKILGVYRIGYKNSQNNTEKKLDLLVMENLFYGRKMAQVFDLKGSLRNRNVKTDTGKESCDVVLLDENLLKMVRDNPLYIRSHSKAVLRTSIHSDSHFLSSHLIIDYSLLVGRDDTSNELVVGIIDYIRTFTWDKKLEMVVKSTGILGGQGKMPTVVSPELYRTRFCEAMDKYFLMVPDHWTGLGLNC
Assay protocol: PIKfyve biochemical assay (ADP-Glo Kinase assay, Carna Biosciences)
Reported conditions: ADP-Glo, full-length human GST-PIKFYVE, 10 μM to 3 nM; read-out: hPIKfyve IC50

Study these solved cases before continuing.
{"columns": ["Compound", "Assay result"],
 "data": [
  ["c1cncc(N2CCc3c(C4CCCNC4)nc(N4CCOCC4)nc32)c1 (centres unmarked)", "1000 to 10000 nM"],
  ["c1cncc(N2CCc3c(-c4ccnnc4)nc(N4CCOCC4)nc32)c1", "10 to 100 nM"],
  ["c1cc(N2CCc3c(-c4ccoc4)nc(N4CCOCC4)nc32)cnn1", "10 to 100 nM"],
  ["c1cncc(N2CCc3c(OCC4CNC4)nc(N4CCOCC4)nc32)c1", "100 to 1000 nM"]
]}

Field: next compound
Any idea what its IC50 is? The compound is O=C1COc2c(OCc3cccnc3)nc(N3CCOCC3)nc2N1c1ccccc1
100 to 1000 nM

This collection of values is drawn from patent US20250145642A1.
